Values were extracted from paper PMC12504763.

Target: COX-2 (Homo sapiens, UniProt P35354)
Construct: purchased BioVision incorporated USA K548–100
Assay: biochemical
Settings: at 10 μM
Labelling field: enter Satisfied if recorded SI (selectivity index, COX-2/COX-1) is less than 1. Enter Not satisfied if it equals or exceeds that cut-off.

Worked cases, answers included:
Given CCOP(=O)(OCC)N1C/C(=C\c2ccc(Cl)cc2)C(=O)C2(C1)C(c1ccc(Cl)cc1)CN(C)C21C(=O)Nc2ccc(F)cc21 (stereo not drawn) [Compound 17i] , is recorded SI (selectivity index, COX-2/COX-1) strictly lower than 1?
Not satisfied

Okay, and CCOP(=O)(OCC)N1C/C(=C\c2ccc(Br)cc2)C(=O)C2(C1)C(c1ccc(Br)cc1)CN(C)C21C(=O)Nc2ccccc21 (stereo not drawn) [Compound 17l] ?
Satisfied

Okay, and CCOP(=O)(OCC)N1C/C(=C\c2ccc(F)cc2)C(=O)C2(C1)C(c1ccc(F)cc1)CN(C)C21C(=O)Nc2ccccc21 (stereo not drawn) [Compound 17e] ?
Not satisfied

Okay, and CCOP(=O)(OCC)N1C/C(=C\c2ccc(C)cc2)C(=O)C2(C1)C(c1ccc(C)cc1)CN(C)C21C(=O)Nc2ccc(F)cc21 (stereo not drawn) [Compound 17n] ?
Not satisfied

Okay, and CCOP(=O)(OCC)N1C/C(=C\c2cccs2)C(=O)C2(C1)C(c1cccs1)CN(C)C21C(=O)Nc2ccc(C)cc21 (stereo not drawn) [Compound 17t] ?
Not satisfied

We next turn to a different molecule, shown below.
Given CCOP(=O)(OCC)N1C/C(=C\c2ccccc2)C(=O)C2(C1)C(c1ccccc1)CN(C)C21C(=O)Nc2ccc(F)cc21 (stereo not drawn) [Compound 17b] , is recorded SI (selectivity index, COX-2/COX-1) strictly lower than 1?
Not satisfied

---

Molecular target: VEGFR-2 (Homo sapiens, UniProt P35968)
Construct: endogenous in cells; host or cells: HCT116, PaCa2, MCF7 (human cancer cell lines, ATCC origin)
Sequence (P35968 20-1356): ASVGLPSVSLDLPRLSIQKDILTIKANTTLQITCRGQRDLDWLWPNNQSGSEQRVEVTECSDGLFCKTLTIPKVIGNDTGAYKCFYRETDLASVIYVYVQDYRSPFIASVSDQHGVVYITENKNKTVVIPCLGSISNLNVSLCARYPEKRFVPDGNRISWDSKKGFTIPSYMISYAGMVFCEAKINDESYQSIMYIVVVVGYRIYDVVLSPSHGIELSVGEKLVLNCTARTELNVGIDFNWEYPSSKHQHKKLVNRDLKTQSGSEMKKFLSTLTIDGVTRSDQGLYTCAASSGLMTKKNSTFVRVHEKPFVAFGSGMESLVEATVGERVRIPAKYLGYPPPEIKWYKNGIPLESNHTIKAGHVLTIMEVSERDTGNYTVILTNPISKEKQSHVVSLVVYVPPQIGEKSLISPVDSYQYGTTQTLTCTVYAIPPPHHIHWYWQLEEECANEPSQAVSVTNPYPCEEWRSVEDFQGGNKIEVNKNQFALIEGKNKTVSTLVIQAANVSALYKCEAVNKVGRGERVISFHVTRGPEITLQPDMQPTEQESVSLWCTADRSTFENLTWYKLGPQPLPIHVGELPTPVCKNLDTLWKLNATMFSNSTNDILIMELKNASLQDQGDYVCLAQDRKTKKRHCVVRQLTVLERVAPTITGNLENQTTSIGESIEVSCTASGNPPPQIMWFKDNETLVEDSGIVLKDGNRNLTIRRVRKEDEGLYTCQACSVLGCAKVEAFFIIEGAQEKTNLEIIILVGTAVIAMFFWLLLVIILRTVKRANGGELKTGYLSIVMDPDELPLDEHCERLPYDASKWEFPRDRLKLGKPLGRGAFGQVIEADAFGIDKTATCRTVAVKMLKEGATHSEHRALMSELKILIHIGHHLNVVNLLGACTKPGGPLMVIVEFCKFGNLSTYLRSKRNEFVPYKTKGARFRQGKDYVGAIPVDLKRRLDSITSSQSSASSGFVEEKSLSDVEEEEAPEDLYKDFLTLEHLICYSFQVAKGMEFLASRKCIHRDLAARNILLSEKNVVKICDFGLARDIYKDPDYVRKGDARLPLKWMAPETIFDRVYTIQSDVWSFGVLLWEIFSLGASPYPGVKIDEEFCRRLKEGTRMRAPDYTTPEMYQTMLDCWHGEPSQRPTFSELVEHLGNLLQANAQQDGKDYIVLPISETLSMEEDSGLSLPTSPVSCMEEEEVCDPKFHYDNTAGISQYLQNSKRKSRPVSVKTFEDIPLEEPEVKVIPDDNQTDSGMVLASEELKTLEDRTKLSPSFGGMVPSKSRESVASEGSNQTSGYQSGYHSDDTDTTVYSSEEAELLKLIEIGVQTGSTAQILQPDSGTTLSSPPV
Assay: cell-based
Type: cell-based
Conditions: PaCa-2, PaCa2
Measurement Type: inhibition at 10 µM
The answer should read as a number with its unit following.

These recorded examples may help you get a feel for the data.
Request the reported inhibition at 10 µM associated with CCOP(=O)(OCC)N1C/C(=C\c2ccc(C)cc2)C(=O)C2(C1)C(c1ccc(C)cc1)CN(C)C21C(=O)Nc2ccc(F)cc21 (centres unmarked) [Compound 17n]
87.5%

Okay, and CCOP(=O)(OCC)N1C/C(=C\c2cccs2)C(=O)C2(C1)C(c1cccs1)CN(C)C21C(=O)Nc2ccccc21 (centres unmarked) [Compound 17q] ?
58.5%

Okay, and CCOP(=O)(OCC)N1C/C(=C\c2ccc(Cl)cc2)C(=O)C2(C1)C(c1ccc(Cl)cc1)CN(C)C21C(=O)Nc2ccc(Cl)cc21 (centres unmarked) [Compound 17j] ?
92.4%

Okay, and CCOP(=O)(OCC)N1C/C(=C\c2ccc(OC)cc2)C(=O)C2(C1)C(c1ccc(OC)cc1)CN(C)C21C(=O)Nc2ccccc21 (centres unmarked) [Compound 17p] ?
93.3%

Others:
Request the reported inhibition at 10 µM associated with CCOP(=O)(OCC)N1C/C(=C\c2ccc(F)cc2)C(=O)C2(C1)C(c1ccc(F)cc1)CN(C)C21C(=O)Nc2ccccc21 (centres unmarked) [Compound 17e]
61%

Okay, and CCOP(=O)(OCC)N1C/C(=C\c2cccs2)C(=O)C2(C1)C(c1cccs1)CN(C)C21C(=O)Nc2ccc(C)cc21 (centres unmarked) [Compound 17t] ?
64.8%

Okay, and CCOP(=O)(OCC)N1C/C(=C\c2ccccc2)C(=O)C2(C1)C(c1ccccc1)CN(C)C21C(=O)Nc2ccc(C)cc21 (centres unmarked) [Compound 17d] ?
83.7%

Okay, and CCOP(=O)(OCC)N1C/C(=C\c2ccc(C)cc2)C(=O)C2(C1)C(c1ccc(C)cc1)CN(C)C21C(=O)Nc2ccccc21 (centres unmarked) [Compound 17m] ?
92.2%

---

Test system: TNF-α
Assay: TNF-α inhibitory properties (ELISA), PaCa2 cell lysate
Type: cell-based, human
Conditions: at 10 μM, control 111.8 ± 2.0
# label = T if TNF-α pg/mL (± SEM) PaCa2 >= 100 pg/mL else F

Check if TNF-α pg/mL (± SEM) PaCa2 >= 100 pg/mL (inclusive). Item: CCOP(=O)(OCC)N1C/C(=C\c2cccs2)C(=O)C2(C1)C(c1cccs1)CN(C)C21C(=O)Nc2ccc(C)cc21 (stereo not drawn) [Compound 17t]
F

Okay, and CCOP(=O)(OCC)N1C/C(=C\c2ccc(F)cc2)C(=O)C2(C1)C(c1ccc(F)cc1)CN(C)C21C(=O)Nc2ccc(Cl)cc21 (stereo not drawn) [Compound 17f] ?
T

Okay, and CCOP(=O)(OCC)N1C/C(=C\c2ccc(Br)cc2)C(=O)C2(C1)C(c1ccc(Br)cc1)CN(C)C21C(=O)Nc2ccccc21 (stereo not drawn) [Compound 17l] ?
F

We next turn to a different molecule, shown below.
Check if TNF-α pg/mL (± SEM) PaCa2 >= 100 pg/mL (inclusive). Item: CCOP(=O)(OCC)N1C/C(=C\c2ccccc2)C(=O)C2(C1)C(c1ccccc1)CN(C)C21C(=O)Nc2ccc(F)cc21 (stereo not drawn) [Compound 17b]
T

---

Test system: TNF-α
Assay: TNF-α inhibitory properties (ELISA), HCT116 cell lysate
Format: cell-based, human
Settings: at 10 μM, control 95.74 ± 0.5
Measurement Type: TNF-α pg/mL (± SEM) HCT116 (pg/mL)
Write down the numeric answer in pg/mL and omit the unit.

These recorded examples may help you get a feel for the data.
For TNF-α, provide TNF-α pg/mL (± SEM) HCT116 of CCOP(=O)(OCC)N1C/C(=C\c2cccs2)C(=O)C2(C1)C(c1cccs1)CN(C)C21C(=O)Nc2ccc(F)cc21 (stereo not shown) [Compound 17r] please.
27.45

Okay, and CCOP(=O)(OCC)N1C/C(=C\c2ccccc2)C(=O)C2(C1)C(c1ccccc1)CN(C)C21C(=O)Nc2ccccc21 (stereo not shown) [Compound 17a] ?
24.86

Okay, and CCOP(=O)(OCC)N1C/C(=C\c2cccs2)C(=O)C2(C1)C(c1cccs1)CN(C)C21C(=O)Nc2ccc(C)cc21 (stereo not shown) [Compound 17t] ?
81.64

Okay, and CCOP(=O)(OCC)N1C/C(=C\c2ccc(C)cc2)C(=O)C2(C1)C(c1ccc(C)cc1)CN(C)C21C(=O)Nc2ccccc21 (stereo not shown) [Compound 17m] ?
21.65

Others:
For TNF-α, provide TNF-α pg/mL (± SEM) HCT116 of CCOP(=O)(OCC)N1C/C(=C\c2ccc(F)cc2)C(=O)C2(C1)C(c1ccc(F)cc1)CN(C)C21C(=O)Nc2ccc(Cl)cc21 (stereo not shown) [Compound 17f] please.
85.46

Okay, and CCOP(=O)(OCC)N1C/C(=C\c2cccs2)C(=O)C2(C1)C(c1cccs1)CN(C)C21C(=O)Nc2ccc(Cl)cc21 (stereo not shown) [Compound 17s] ?
86.57

Okay, and CCOP(=O)(OCC)N1C/C(=C\c2ccccc2)C(=O)C2(C1)C(c1ccccc1)CN(C)C21C(=O)Nc2ccc(Cl)cc21 (stereo not shown) [Compound 17c] ?
31.72

Okay, and CCOP(=O)(OCC)N1C/C(=C\c2ccccc2)C(=O)C2(C1)C(c1ccccc1)CN(C)C21C(=O)Nc2ccc(C)cc21 (stereo not shown) [Compound 17d] ?
94.80

Okay, and CC(C)Cc1ccc(C(C)C(=O)O)cc1 (stereo not shown) [Ibuprofen, reference compound] ?
74.5

Okay, and CCOP(=O)(OCC)N1C/C(=C\c2ccc(Cl)cc2)C(=O)C2(C1)C(c1ccc(Cl)cc1)CN(C)C21C(=O)Nc2ccc(Cl)cc21 (stereo not shown) [Compound 17j] ?
81.78

---

Target: COX-2 (Homo sapiens, UniProt P35354)
Construct: purchased BioVision incorporated USA K548–100
Sequence (P35354 18-604): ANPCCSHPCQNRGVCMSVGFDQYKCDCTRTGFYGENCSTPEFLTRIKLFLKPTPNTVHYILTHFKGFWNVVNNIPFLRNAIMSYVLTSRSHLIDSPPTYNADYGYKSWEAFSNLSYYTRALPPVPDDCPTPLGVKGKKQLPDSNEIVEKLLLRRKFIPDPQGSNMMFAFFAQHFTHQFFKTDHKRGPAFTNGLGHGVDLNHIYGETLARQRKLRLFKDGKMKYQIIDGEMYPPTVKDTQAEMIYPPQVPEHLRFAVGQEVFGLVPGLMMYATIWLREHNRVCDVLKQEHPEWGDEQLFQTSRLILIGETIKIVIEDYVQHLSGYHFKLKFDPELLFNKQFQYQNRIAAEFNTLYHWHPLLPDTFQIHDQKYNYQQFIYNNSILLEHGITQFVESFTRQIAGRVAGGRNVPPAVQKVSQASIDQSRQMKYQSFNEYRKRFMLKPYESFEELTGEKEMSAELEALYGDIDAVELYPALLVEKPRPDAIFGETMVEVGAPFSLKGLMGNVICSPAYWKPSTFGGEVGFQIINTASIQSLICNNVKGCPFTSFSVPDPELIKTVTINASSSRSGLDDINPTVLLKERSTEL
Assay: biochemical
Settings: 3 replicates, read-out: % Inhibition of COX-2 ± SEM
Measurement Type: inhibition at 10 µM
The answer should read as a number with its unit following.

Request the reported inhibition at 10 µM associated with CCOP(=O)(OCC)N1C/C(=C\c2cccs2)C(=O)C2(C1)C(c1cccs1)CN(C)C21C(=O)Nc2ccc(C)cc21 (stereo not shown) [Compound 17t]
63.7%

Others:
Request the reported inhibition at 10 µM associated with CCOP(=O)(OCC)N1C/C(=C\c2ccc(Cl)cc2)C(=O)C2(C1)C(c1ccc(Cl)cc1)CN(C)C21C(=O)Nc2ccc(F)cc21 (stereo not shown) [Compound 17i]
49.7%

Okay, and CCOP(=O)(OCC)N1C/C(=C\c2ccc(F)cc2)C(=O)C2(C1)C(c1ccc(F)cc1)CN(C)C21C(=O)Nc2ccc(Cl)cc21 (stereo not shown) [Compound 17f] ?
60.8%

Okay, and CCOP(=O)(OCC)N1C/C(=C\c2ccc(Cl)cc2)C(=O)C2(C1)C(c1ccc(Cl)cc1)CN(C)C21C(=O)Nc2ccc(Cl)cc21 (stereo not shown) [Compound 17j] ?
53.5%

Okay, and CCOP(=O)(OCC)N1C/C(=C\c2ccc(F)cc2)C(=O)C2(C1)C(c1ccc(F)cc1)CN(C)C21C(=O)Nc2ccc(C)cc21 (stereo not shown) [Compound 17g] ?
51.8%
